B1: HDV Ribozyme (parent)
chain: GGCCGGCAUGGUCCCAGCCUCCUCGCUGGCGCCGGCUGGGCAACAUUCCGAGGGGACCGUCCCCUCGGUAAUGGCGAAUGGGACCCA

Variants of: B1
Assay: self-cleavage, relative activity (ratio to wild type); higher = more cleavage; co-transcriptional
Give self-cleavage for every item shown.
Just the number, please.

Task: Look up self-cleavage for this variant: `GGCCGGCAUGGUCCCAGUCUCCUCGCUGGCGCCGGCUGGGCAACAUUCCGAGGGGACCGUCCCCUCGGUAGUGGCGAAUGGGACCCA`
Output: 0.504

Task: Please look up its self-cleavage: `GGCCGGCAUAGUCCCAGCCUCCUCGCUGGCGCCGCCUGGGCAACAUUCCGAGGGGACCGUCCCCUCGGUAAUGGCGAAUGGGACCCA`
Output: 0.1

Task: Which self-cleavage is listed for `GCCCGGCAUGGUCCCAGCCUCCUCGCUGGCGUCGGCUGGGCAACAUUCCGAGGGGACCGUCCCCUCGGUAAUGGCGAAUGGGACCCA` ?
Output: 0.101
